- Test system: MS2 coat protein
- experiment: apparent KD of MS2 coat protein; designed switch direction (-1 OFF switch, 1 ON switch): 1; higher = weaker reporter binding
- setup-conditions: Eterna round: R95; input ligand: none
metric-name: apparent KD of MS2 coat protein (nM)
Your answer should be a plain number; it is taken to be in nM.

Some sequences with recorded apparent KD of MS2 coat protein:
- sequence-chain: "UCUUGGUUUUUGCUCGUUUUUUGUGUUGAACAUGAGGAUCACCCAUGUAUUGUACGGUCCGGUUUAAUAGUGGUCCG [JMF 14] (puzzle: Sensor for hsa-mir-208a)"
  apparent KD of MS2 coat protein, nM: 28.3
- sequence-chain: "UCUUGGUUUUUGCUCGUUUUUUGUGUUGAACAUGAGGAUCACCCAUGUAUUGUACAAUCCAAUUUAAUAAUGGUCCG [JMF 48] (puzzle: Sensor for hsa-mir-208a)"
  apparent KD of MS2 coat protein, nM: 94
- sequence-chain: "UAGUACAUGCUUUUUGUCUGUCUUAGAUAACAUGAGGAUCACCCAUGUAAGGUGAAAGUUAUAUAGUUUAUGAAUAU [JR_SHM208A_Sub058] (puzzle: Sensor for hsa-mir-208a)"
  apparent KD of MS2 coat protein, nM: 264
- sequence-chain: "AGUCCAGCCUGAGCUGGACAAAAGCAUGUACAUGAGGAUCACCCAUGUUCAUGUACAAGCUUUUUGCUCGUCAUAAA [Mat - hsa-mir-208a - Mod of JL - 51] (puzzle: Sensor for hsa-mir-208a)"
  apparent KD of MS2 coat protein, nM: 474

Exercise: // apparent KD of MS2 coat protein lookup, key: GAGAAGAGGGACAAGGAUAUGUCAGGAGAGACAUGAGGAUCACCCAUGUAGAGGUUGGAGGAGAGACAGAAGGUGUCGAGAGCGA [JR_SS2_Sub014] (puzzle: Same State 2)
Key: 361

Exercise: Also, UCUUGGUUUUUGCUCGUUUUUUGUGUUGAACAUGAGGAUCACCCAUGUAUUGUACGGUCCAGUUUAGUGGUAAUCCG [JMF 69] (puzzle: Sensor for hsa-mir-208a) please.
Key: 36.8

Exercise: Also, AACAAUCUAUCUGAGGAUAUCAUGAAAUAAACAUGAGGAUCACCCAUGUGCAGGAAAACUGCUUAUGAGAAGGCAGAUAGAUUGA [salish99_ss2_r3_047] (puzzle: Same State 2) please.
Key: 12.2

Exercise: Also, ACAAGACAUGAGGAUCACCCAUGUAUAAAUUACACAGGAUAUCGGUGGGCCGCGCCUACACGAGAAGGGUGACUUC [Gere] (puzzle: Same State 1) please.
Key: 35.5

Exercise: Also, AUUAAACAUGAGGAUCACCCAUGUCAACAAAGUCGAGGAUAUGGGCAAAUAAAAUAAGAACCAGAAGGCGUAUAAU [salish99_ss1_r3_077] (puzzle: Same State 1) please.
Key: 636
